Molecular target: 5-HT7 (human recombinant receptor, CHO-K1) (Homo sapiens)
Sequence (P34969 whole entry): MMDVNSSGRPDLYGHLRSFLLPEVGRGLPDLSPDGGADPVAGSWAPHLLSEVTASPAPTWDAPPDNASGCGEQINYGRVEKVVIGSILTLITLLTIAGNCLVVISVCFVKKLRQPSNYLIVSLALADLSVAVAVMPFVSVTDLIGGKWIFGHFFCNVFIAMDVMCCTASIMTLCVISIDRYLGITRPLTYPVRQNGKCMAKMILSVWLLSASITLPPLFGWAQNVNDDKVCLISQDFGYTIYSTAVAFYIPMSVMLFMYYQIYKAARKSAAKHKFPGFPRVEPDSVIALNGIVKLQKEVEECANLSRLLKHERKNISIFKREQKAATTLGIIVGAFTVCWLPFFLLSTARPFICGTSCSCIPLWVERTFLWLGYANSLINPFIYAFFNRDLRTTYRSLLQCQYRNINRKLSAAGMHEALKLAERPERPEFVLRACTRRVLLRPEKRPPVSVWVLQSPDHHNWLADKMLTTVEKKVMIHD
Assay: Radioligand binding assay, 5-HT7
Sorting guide: entries reporting IC50 beneath 5 µM go in the label 1 pile, the rest go in the label 0 pile.

Cc1ccccc1Cn1c(=O)c2c(N3CCN(C)CC3)cc(Cl)cc2n(Cc2ccccc2)c1=O [Example 22] = label 1
CN1CCN(c2cc(Br)cc3c2c(=O)n(Cc2ccccc2)c(=O)n3Cc2ccccc2)CC1 [Example 54] = label 0
O=c1c2c(N3CCNCC3)cc(Cl)cc2n(Cc2ccccc2)c(=O)n1CCCc1ccccc1 [Example 71] = label 1
CN1CCN(c2cc(Cl)cc3c2c(=O)n(Cc2cccc(I)c2)c(=O)n3Cc2ccccc2)CC1 [Example 20] = label 1
Cc1ccc(Cn2c(=O)c3c(N4CCN(C)CC4)cc(Cl)cc3n(Cc3ccccc3)c2=O)cc1 [Example 24] = label 0
CN1CCN(c2cc(Cl)cc3c2c(=O)n(Cc2ccccc2F)c(=O)n3Cc2ccccc2)CC1 [Example 11] = label 1
CN1CCN(c2cc(Cl)cc3c2c(=O)n(Cc2cccc(Cl)c2)c(=O)n3Cc2ccccc2)CC1 [Example 18] = label 1
CN1CCN(c2cc(Cl)cc3c2c(=O)n(CCc2ccccc2)c(=O)n3Cc2ccccc2)CC1 [Example 42] = label 0
Cc1cc(C)cc(CCCn2c(=O)c3c(N4CCN(C)CC4)cc(Cl)cc3n(Cc3ccccc3)c2=O)c1 [Example 44] = label 0
CCCn1c(=O)c2c(N3CCN(C)CC3)cc(Cl)cc2n(Cc2ccccc2)c1=O [Example 3] = label 0
O=c1c2c(N3CCNCC3)cc(Cl)cc2n(Cc2ccccc2)c(=O)n1Cc1ccccc1F [Example 58] = label 0
O=c1c2c(N3CCNCC3)cc(Cl)cc2n(Cc2ccccc2)c(=O)n1Cc1ccccc1Cl [Example 59] = label 0
CN1CCN(c2cc(Cl)cc3c2c(=O)n(Cc2ccccc2Br)c(=O)n3Cc2ccccc2)CC1 [Example 14] = label 0
CN1CCN(c2cc(Cl)cc3c2c(=O)n(CCCc2ccccc2)c(=O)n3Cc2ccccc2)CC1 [Example 43] = label 0
CN1CCN(c2cc(Cl)cc3c2c(=O)n(Cc2ccc(F)cc2)c(=O)n3Cc2ccccc2)CC1 [Example 13] = label 0
CN1CCN(c2cc(Cl)cc3c2c(=O)n(Cc2cccc(F)c2)c(=O)n3Cc2ccccc2)CC1 [Example 12] = label 1
